Test system LRRK2 (WT) (Homo sapiens (Human)), IC50 listed for each of the molecules.
observation-type: IC50 (nM)

1: O=C(Nc1cc2cc(-c3cnc4[nH]ccc4c3)ccn2n1)[C@@H]1C[C@@H]1F [Example 1]
2: O=C(Nc1cc2cc(-c3cnc4[nH]ccc4c3Cl)ccn2n1)[C@@H]1C[C@@H]1F [Example 2]
Q) Quick one: lower IC50, 1 or 2 ? # reply format: chosen label
A) 2
(2: 36.5 nM, 1: 55.7 nM)

* * *

- test-system: His-tagged recombinant human ABL1 (Homo sapiens (Human), UniProt P00519)
- Sequence (P00519 whole entry): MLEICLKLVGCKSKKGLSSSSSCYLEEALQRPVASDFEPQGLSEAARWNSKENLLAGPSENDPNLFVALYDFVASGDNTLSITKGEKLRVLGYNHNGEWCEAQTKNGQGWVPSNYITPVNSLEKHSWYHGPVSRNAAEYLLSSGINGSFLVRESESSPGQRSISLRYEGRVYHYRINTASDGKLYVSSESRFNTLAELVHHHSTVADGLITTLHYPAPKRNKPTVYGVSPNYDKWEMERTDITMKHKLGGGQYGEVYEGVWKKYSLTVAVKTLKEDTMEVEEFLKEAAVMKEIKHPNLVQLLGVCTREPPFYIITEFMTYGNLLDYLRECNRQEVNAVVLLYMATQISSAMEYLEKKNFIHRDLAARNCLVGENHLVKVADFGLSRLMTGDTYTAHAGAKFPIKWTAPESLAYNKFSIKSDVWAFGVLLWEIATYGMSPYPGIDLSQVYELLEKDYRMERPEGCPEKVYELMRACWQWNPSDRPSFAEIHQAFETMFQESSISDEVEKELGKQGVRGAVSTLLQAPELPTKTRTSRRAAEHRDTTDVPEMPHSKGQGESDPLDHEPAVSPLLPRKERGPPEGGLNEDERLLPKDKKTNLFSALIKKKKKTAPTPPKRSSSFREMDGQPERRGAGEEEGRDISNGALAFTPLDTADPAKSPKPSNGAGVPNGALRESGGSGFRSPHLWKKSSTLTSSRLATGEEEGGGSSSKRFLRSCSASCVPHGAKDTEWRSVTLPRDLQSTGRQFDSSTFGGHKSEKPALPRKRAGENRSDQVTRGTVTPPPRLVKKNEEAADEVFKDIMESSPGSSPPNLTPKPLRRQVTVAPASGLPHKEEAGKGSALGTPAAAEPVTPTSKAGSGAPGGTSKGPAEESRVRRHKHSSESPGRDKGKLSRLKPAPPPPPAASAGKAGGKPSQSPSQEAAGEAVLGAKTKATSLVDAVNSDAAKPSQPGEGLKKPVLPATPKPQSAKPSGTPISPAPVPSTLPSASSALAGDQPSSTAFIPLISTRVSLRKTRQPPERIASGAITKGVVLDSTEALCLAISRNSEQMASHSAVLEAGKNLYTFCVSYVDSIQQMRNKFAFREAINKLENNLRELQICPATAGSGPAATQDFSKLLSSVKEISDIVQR
- conditions: read-out: c-Abl IC50; 25 µM ATP, Abltide substrate, 30° C. 30-min
pIC50: −log10 of the molar value.
observation-type: pIC50

A: O=C(Nc1cc2cc(-c3cnc4[nH]ccc4c3F)ccn2n1)[C@@H]1C[C@@H]1F
B: Cc1c[nH]c2ncc(-c3ccn4nc(NC(=O)[C@@H]5C[C@@H]5F)cc4c3)cc12
C: O=C(Nc1cc2cc(-c3cnc4[nH]cc(Cl)c4c3Cl)ccn2n1)[C@@H]1C[C@@H]1F
Q) Give the ascending ranking of the items by reported pIC50. # the answer lists labels in the order requested
A) A, C, B
(A: 7.95, C: 8.37, B: 8.60)

A: O=C(Nc1cc2cc(-c3cnc4[nH]cc(F)c4c3)ccn2n1)[C@@H]1C[C@@H]1F
B: O=C(Nc1cc2cc(-c3cnc4[nH]ccc4c3Cl)ccn2n1)[C@H]1C[C@@H]1F
Q) Endpoint returns the identifier whose pIC50 is numerically larger, either A or B . # reply format: chosen label
A) A
(A: 8.44, B: 7.91)

* * *

- Tested on: IL-6 secretion in BV-2 cell
- run-description: IL-6 Secretion in BV-2 Cell (L18-MDP stimulated, ELISA)
- Assay type: cell-based
- conditions: BV-2 mouse microglia cells, 10 µg/ml L18-MDP, 24 hr
pIC50: −log10 of the molar value.
observation-type: pIC50

[
  {
    "compound-structure": "O=C(Nc1cc2cc(-c3cnc4[nH]cc(F)c4c3)ccn2n1)[C@@H]1C[C@@H]1F",
    "test-system": "IL-6 secretion in BV-2 cell",
    "pIC50": 6.14
  }
]

A: O=C(Nc1cc2cc(-c3cc4cc[nH]c4nc3Cl)ccn2n1)[C@@H]1C[C@@H]1F
B: Cc1c(-c2ccn3nc(NC(=O)[C@@H]4C[C@@H]4F)cc3c2)cnc2[nH]ccc12
C: Cc1c(-c2ccn3nc(NC(=O)[C@H]4C[C@@H]4F)cc3c2)cnc2[nH]ccc12
D: O=C(Nc1cc2cc(-c3cnc4[nH]ccc4c3F)ccn2n1)[C@@H]1C[C@@H]1F
E: O=C(Nc1cc2cc(-c3cnc4[nH]cc(Cl)c4c3Cl)ccn2n1)[C@@H]1C[C@@H]1F
Q) Falling order of pIC50, please. # the answer lists labels in the order requested
A) C, B, E, A, D

* * *

- test-system: GST-tagged recombinant human RIPK2 (Homo sapiens (Human), UniProt O43353)
- Sequence (O43353 whole entry): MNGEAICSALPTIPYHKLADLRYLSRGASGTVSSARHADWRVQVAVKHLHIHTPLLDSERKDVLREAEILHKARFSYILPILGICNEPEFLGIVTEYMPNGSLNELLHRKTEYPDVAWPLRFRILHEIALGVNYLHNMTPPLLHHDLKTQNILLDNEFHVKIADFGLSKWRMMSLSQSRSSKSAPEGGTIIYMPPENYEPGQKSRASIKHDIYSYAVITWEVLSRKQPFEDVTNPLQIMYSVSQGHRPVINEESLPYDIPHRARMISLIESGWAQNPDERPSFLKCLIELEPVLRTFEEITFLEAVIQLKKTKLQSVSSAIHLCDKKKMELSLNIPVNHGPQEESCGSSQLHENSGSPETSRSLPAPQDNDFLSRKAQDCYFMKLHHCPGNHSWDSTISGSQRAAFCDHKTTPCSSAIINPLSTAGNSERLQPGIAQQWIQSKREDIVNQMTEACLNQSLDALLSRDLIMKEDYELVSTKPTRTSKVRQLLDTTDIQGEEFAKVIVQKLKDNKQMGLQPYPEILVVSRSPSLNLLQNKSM
- run-description: RIP2 Kinase Assay (ADP-Glo)
- conditions: 25 µM ATP, MBP substrate, 30° C. 60 minutes
observation-type: IC50 (nM)

[
  {
    "compound-structure": "O=C(Nc1cc2cc(-c3cnc4[nH]cc(Cl)c4c3Cl)ccn2n1)[C@@H]1C[C@@H]1F",
    "IC50 [nM]": 15.4
  },
  {
    "compound-structure": "O=C(Nc1cc2cc(-c3cnc4[nH]ccc4c3Cl)ccn2n1)[C@@H]1C[C@@H]1F",
    "IC50 [nM]": 6.67
  },
  {
    "compound-structure": "Cc1c(-c2ccn3nc(NC(=O)[C@@H]4C[C@@H]4F)cc3c2)cnc2[nH]cc(F)c12",
    "IC50 [nM]": 14.9
  }
]

I: Cc1c(-c2ccn3nc(NC(=O)[C@H]4C[C@H]4F)cc3c2)cnc2[nH]ccc12
II: O=C(Nc1cc2cc(-c3cnc4[nH]cc(Cl)c4c3)ccn2n1)[C@@H]1C[C@@H]1F
Q) Endpoint returns the identifier whose IC50 is numerically larger, either I or II . # reply format: chosen label
A) II
